Biological target: T1, human EpCAM (epithelial cell adhesion/activating molecule) (human, UniProt P16422 24-314)
T1 sequence: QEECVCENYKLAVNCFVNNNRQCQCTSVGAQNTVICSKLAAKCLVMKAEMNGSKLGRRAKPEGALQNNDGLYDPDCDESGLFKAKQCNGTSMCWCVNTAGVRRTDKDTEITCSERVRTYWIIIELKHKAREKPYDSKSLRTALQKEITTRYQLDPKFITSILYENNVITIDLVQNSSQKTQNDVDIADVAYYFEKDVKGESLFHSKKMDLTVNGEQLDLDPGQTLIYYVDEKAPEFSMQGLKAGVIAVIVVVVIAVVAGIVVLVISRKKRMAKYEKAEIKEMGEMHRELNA
Experiment: cell-based or functional assay
RESULT_TYPE: % Annexin V/PI-positive cells, FaDu, 3.0 µg/ml mAb (%)

BINDER	VALUE_UNIT	QUANTITATIVE_READOUT
murine monoclonal antibody 6D11 (antibody, mouse IgG1, V domains shown, Mouse IgG1, kappa, from hybridoma; also called m338-6D11.8) VH: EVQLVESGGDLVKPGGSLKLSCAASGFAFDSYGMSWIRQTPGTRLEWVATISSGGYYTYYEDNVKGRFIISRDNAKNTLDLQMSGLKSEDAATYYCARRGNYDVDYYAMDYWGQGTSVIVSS VL: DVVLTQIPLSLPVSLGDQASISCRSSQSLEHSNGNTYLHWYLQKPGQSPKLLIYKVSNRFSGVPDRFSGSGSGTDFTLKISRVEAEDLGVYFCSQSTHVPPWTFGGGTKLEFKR	%	39
